Target: T1, human MAdCAM protein (human, UniProt Q13477 19-317)
T1 construct: used for Octet, SPR, ELISA and plate capture; construct not described; also called recombinant human MAdCAM; soluble monomeric human MAdCAM
T1 sequence (looked up): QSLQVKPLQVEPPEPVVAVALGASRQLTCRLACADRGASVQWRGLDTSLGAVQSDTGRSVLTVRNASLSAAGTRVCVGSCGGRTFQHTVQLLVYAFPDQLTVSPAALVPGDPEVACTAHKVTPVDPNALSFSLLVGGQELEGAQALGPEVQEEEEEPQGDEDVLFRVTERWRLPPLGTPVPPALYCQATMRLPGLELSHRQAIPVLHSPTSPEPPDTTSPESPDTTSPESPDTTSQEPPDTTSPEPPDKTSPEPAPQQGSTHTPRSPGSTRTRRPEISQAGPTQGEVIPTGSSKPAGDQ
Experiment: Octet
Attribute Measured: binding result

[
  {
    "Binder": "MAdCAM antibody Clone ID 19 of Table 6 (scFv) (scFv) scFv: EVQLLESGGGLVQPGGSLRLSCAASGFTFDDYAMHWVRQAPGKGLEWVSGISWNSGSIGYADSVKGRFTISRDNSKNTLYLQMNSLRAEDTAVYYCAKDIVAAGHYYYGMDVWGQGTTVTVSSGGGGSGGGGSGGGGSGGGGSDIQMTQSPSSLSASVGDRVTITCQASQDISNYLNWYQQKPGKAPKLLIYDASNLETGVPSRFSGSGSGTDFTLTISSLQPEDFATYYCQQSYSTPLTFGGGTKVEIK",
    "Assay Result": "binds"
  },
  {
    "Binder": "MAdCAM antibody Clone ID 23 of Table 6 (scFv) (scFv) scFv: EVQLLESGGGLVQPGGSLRLSCAASGFTFSSYAMHWVRQAPGKGLEWVSGISGSGGSAYYADSVKGRFTISRDNSKNTLYLQMNSLRAEDTAVYYCATSQAPVDYYYYGMDVWGQGTTVTVSSGGGGSGGGGSGGGGSGGGGSDIQMTQSPSSLSASVGDRVTITCRASQSISSWLAWYQQKPGKAPKLLIYAASNLQRGVPSRFSGSGSGTDFTLTISSLQPEDFATYYCQQSYSIPITFGQGTKVEIK",
    "Assay Result": "binds"
  },
  {
    "Binder": "MAdCAM antibody Clone ID 61 of Table 6 (scFv) (scFv) scFv: EVQLLESGGGLVQPGGSLRLSCAASEFTFSNAWMSWVRQAPGKGLEWVASISSTSAYIDYADSVKGRFTISRDNSKNTLYLQMNSLRAEDTAVYYCAREVVGATTFDYWGQGTLVTVSSGGGGSGGGGSGGGGSGGGGSDIQMTQSPSSLSASVGDRVTITCRASQSISTWLAWYQQKPGKAPKLLIYAASSLQSGVPSRFSGSGSGTDFTLTISSLQPEDFATYYCQQANAFPPTFGQGTRLEIK",
    "Assay Result": "binds"
  }
]
